The origin of these recorded values is patent US20080306055A1.

target: HERG (Homo sapiens, UniProt Q12809); assay: HERG activity (planar-array-based voltage clamp); settings: modified planar-array voltage clamp method
Sequence (Q12809 whole entry): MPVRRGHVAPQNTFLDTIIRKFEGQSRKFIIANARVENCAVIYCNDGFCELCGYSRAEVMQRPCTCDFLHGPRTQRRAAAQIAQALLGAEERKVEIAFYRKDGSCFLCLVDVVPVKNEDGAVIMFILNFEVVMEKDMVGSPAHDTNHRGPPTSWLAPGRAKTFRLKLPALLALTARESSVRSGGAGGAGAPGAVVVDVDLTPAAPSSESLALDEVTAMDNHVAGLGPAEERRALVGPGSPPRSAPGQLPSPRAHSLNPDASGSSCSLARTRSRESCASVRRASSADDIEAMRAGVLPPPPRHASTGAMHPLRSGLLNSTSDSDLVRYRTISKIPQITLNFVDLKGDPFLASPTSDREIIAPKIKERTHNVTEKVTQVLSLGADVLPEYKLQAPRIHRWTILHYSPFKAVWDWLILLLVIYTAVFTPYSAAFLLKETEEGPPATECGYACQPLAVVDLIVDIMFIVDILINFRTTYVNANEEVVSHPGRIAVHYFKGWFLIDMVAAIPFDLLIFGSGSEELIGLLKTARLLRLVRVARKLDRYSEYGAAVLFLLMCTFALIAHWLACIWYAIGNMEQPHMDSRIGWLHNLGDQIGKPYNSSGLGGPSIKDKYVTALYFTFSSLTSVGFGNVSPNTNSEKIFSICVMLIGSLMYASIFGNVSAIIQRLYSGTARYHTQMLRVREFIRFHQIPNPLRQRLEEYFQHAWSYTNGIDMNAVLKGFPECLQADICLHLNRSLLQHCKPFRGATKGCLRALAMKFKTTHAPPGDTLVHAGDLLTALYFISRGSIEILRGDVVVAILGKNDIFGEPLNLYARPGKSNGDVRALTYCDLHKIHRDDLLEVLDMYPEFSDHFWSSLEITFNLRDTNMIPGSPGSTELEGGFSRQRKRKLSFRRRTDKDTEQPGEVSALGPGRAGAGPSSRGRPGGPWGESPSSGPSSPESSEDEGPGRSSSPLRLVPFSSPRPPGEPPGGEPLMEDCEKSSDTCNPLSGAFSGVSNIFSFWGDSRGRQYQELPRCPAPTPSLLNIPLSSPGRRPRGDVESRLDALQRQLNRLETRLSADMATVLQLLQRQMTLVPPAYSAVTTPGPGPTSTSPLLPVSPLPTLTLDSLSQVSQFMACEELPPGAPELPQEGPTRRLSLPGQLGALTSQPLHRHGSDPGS
pIC50: −log10 of the molar value.
parameterMeasured: pIC50

INPUT: Missing value: pIC50, HERG (Homo sapiens, UniProt Q12809), entry CC(O)CCNC(=O)NC1CCN(Cc2ccn(-c3ccc(C(F)(F)F)cc3)c2)CC1 (stereo not shown) . Fill in?
OUTPUT: < 5.30
